All values here come from patent US20220125947A1.

- tgt: T1, T cell receptor (TCR) Vγ9 (TRGV9) (human, UniProt Q99603 21-122)
- T1 chain (looked up): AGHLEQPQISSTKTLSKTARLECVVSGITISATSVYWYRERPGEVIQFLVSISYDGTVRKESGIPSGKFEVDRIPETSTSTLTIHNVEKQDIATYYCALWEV
- test summary: cell-based or functional assay; further: test concentration or dose not given here
value kind: CD25+ (Vg9+ cells), flow staining (%)
Report only the number, with the unit % understood.

These solved cases illustrate the format of a correct answer.
# binder, CD25+ (Vg9+ cells), flow staining / %
records = [
    ("VG9B198 (antibody, human IgG1, lambda, V domains shown) VH: QVQLQESGPGLVKPSETLSLTCTVSGDSISSIYWSWIRQSAGKGLEWIGRIYTTDITNYNPSLKSRVTMSADTSKNQLSLKLTSVTAADTAVYYCAKNGYSYGGFNYWGQGTLVTVSS VL: QSVLTQPPSVSGAPGQRVTISCTGSSSNIGAGYDVHWYQRLPGTAPKLLIYGDSYRPSGVPDRFSGSKSGTSASLAITGLQAEDEADYYCQSYDSSLSVVVFGGGTKLTVLG", 23),
    ("VG9B104 (antibody, human IgG1, kappa, V domains shown) VH: EVQLVESGGGLVKPGGSLRLSCAASGFTFSVYSMNWVRQAPGKGLEWVSSIGSSSSYIFYADSVKGRFTISRDNAKNSLYLQMNSLRAEDTAVYYCGRDHDYGGLDYWGQGTLVTVSS VL: EIVLTQSPGTLSLSPGERATLSCRASQSVSSSYLAWYQQKPGQAPRLLIYGPSNRATDIPDRFSGTGSGTDFTLTISRLEPEDFAVYYCQQYGRSPLTFGGGTKVEIKR", 41.4),
    ("VG9B98 (antibody, human IgG1, kappa, V domains shown) VH: EVQLVQSGGDLVKSGGSLRLSCAASGFTFSSYSMYWVRQAPGKGLEWVSSIGSSSTYIFYADSVKGRFTISRDNAMTSLYLQMNRLGAEDSAVYYCARDGELGPFEYWGQGTLVTVSS VL: EIVLTQSPGTLSLSPGERATLSCRASQSVSTSYLAWFQQKPGQAPRLLIFGTSSRATGIPDRFSGSGSGTDFTLTISRLEPEDFAVYHCLQYGRSPLTFGGGTKVDIKR", 29.4),
]

With those in mind, consider the next binder.
Data request: Would you kindly share the measured CD25+ (Vg9+ cells), flow staining for VG9B463 (antibody, human IgG1, lambda, V domains shown) VH: EVQLVESGGGLVKPGGSLRLSCSASGFTFSNYDMNWVRQAPGKGLEWVSSISSSSSYIYYADSVKGRFTISRDNAKNSLYLQMNSLRAEDTAVYHCARDVGVTTDYYYYGMDVWGQGTTVTVSS VL: QPVLTQSSSASGTPGQRVTISCSGSSSNIGSNTVNWYQQFPGTAPKLLIYTNTQRPSGVPDRFSGSKSGTLVSLAISGLQSEDEADYYCAAWDDSLNAWVFGGGTKLTVLG ?
Data returned: 26
